assay: yeast display, Sf9 membrane polyspecificity reagent, FACS + sequencing; frameworks hold sequencing errors
readoutType: polyreactivity (PSR sort gate)

Reference set, count: 5
chain	valueMeasured
QVQLVESGGGLVQAGGSLRLSCAASGLTFRQYAMGWYRQAPGKERELVAAITNGGRTYYADSVKGRFTISRDNAKNTVYLQMNSLKPEDTAVYYCAAYVPTFKDRSRWYGRKYDYWGQGTQVTVSS	low polyreactivity
QVQLVETGGGLVQAGGSLRISCAPSGRTFRNNDMAWYRQAPGTEREFVAVISNTGGSTYYADSVKGRFTNSRDNAKNTVYLQMNSLKPEDTAVYYCAVRPRYSQYYYWGQGTQVTVSS	high polyreactivity
QDQLVESGGGLVQAGGSLRLSCAAYGSTSYTNAMGWYRQAPGKERELVAGITRSGDSTYYADSVKGRFTISRDTAKNTVYLQMKSLKPEDTAVYYCAADIGDYWLGYYTGYYYLGQGTQVTVSS	high polyreactivity
QVQLVESGGGLVQAGGSLRLSCAATGFTFYVNAMGWYRQAPGKERELVAGITTSDGSTYYADSVKGRFTISRDNAKNTVYLQMNSLKPEDTAVYYCAAAITWYQLYQRSGGDYWGQGTQVTVSS	low polyreactivity
QVQLVESGGGLVQAGCSLRLSCAASGSIFARYAMGWSRQAPGKERELVAAINSTVSTNYADSVKGRFTISRDNAKNTVYLQMNSLKTEDTAVYYCAVDIVRGGRDSWGQGTQVTVSS	low polyreactivity

Sample QVQLVESGGGLVQAGGSLRLSCAASGGTFEFYTMGWYRQAPGKERELVAVINASGDSTYYADSVKGRFTISRDNAKNTVYLQMNSLKPEDTAVYYCAADHRGEYDYWGQGTQVTVSS — what was its polyreactivity (PSR sort gate)?
low polyreactivity

Same thing, different sequence: QVQLVESGGGLVQAGGSLRLSCAASGRIIYKNAMGWYRQAPGKERELVAAITSSGGSTYYADSVKGRFTISRDNAKNTVYLQMNSLKPEDTAVYYCAAYAYGRFGKLNYWGQGTQVTVSS
low polyreactivity

Same thing, different sequence: QVQLVETGGGLVQAGGSLRLSCAASGLTFYVYAMGWYRQAPGKERELVAAISSGGRTYYADSVKGRFTISRDNAKNTVYLQMNSLKPEDTAVYYCAAVRHRNYGYWGQGTQVTVSS
high polyreactivity

Same thing, different sequence: QVQLVESGGGLVQAGGSLRLSCAASGFTLRTYAMGWYRQAPGKERELVAAITVSGGTYYADSVKGRFTISRDNAKYTVYLQMNSLKPEDTAVYYCTAKRFGTGFDYWGQGTQVTVSS
low polyreactivity

Same thing, different sequence: QVQLVESGGGLVQAGGSLRLSCAASGITFRFYAMGWYRQAPGKERELVAVISRGGGTTYYADSVKGRFTISRDNAKNTVYLQMNSLKPEDTAVYYCNAVIAWYRSDEYDYWGQGTQVTVSS
high polyreactivity

Same thing, different sequence: QVQLVESGGGLVQAGGSLRLSCAASGNIFPYNAMGWYRQAPGKERELVASISSGGSTNYADSVKGRFTISRDNAKNTVYLQMNSLKPEDTAVYYCAKDQSVLSRGGTYDYWGQGTQVTVSS
low polyreactivity

###

assay: yeast display, Sf9 membrane polyspecificity reagent, FACS + sequencing; frameworks hold sequencing errors
readoutType: polyreactivity (PSR sort gate)

chain	readoutType	valueMeasured
QVQLVESGGGLVQAGGTLRLSGDASGSTFPANAMGWYRQAPGKERELVAAISYRGGSTYYADSVKGRFTISRDNAKNTVYLQMNSLKPEDTAVYYCAATPWYRTRTYDYWGQGTQVTVSS	polyreactivity (PSR sort gate)	high polyreactivity
QVQLVESGGGLVQAGGSLRLSCAASGSTFPIYAMGWYRQAPGKERELVASIRSGGSTYYADSVKGRFTMSRDNAKNTVYLQMNSLKPEDTAVYYCARRDYGVLNKGLGQEGDYWGQGTQVTVSS	polyreactivity (PSR sort gate)	low polyreactivity
QVQLVESGGGLVQAGGSLRLSCADSVIIFRVYVMGCYRQAPGKERELVDAISTSGGRTSYADSVKGRFTISRDNAKNTVYLQMNSLKPEDTAVYYCAARPLYSYSQWGYGYWGQGTQVTVSS	polyreactivity (PSR sort gate)	high polyreactivity
QVQLVESGGGLVQAGGSLRLSCAASGRIFRDYSMGWYRQAPGKETELVATITWSGATTYYADSVKGRFTISRDNAKNTVYLQMNSLKPEDTAVYYCNTDTDVDVAFDSWGQGTQVTVSS	polyreactivity (PSR sort gate)	low polyreactivity
QVHLVESGGGLVQAGGSLRLSCAASGRTIGWNVMGWYRQAPGKERELVAAISGSGITYADSVKGRFTISRDNAKNTVYLQMNSLKPEDTAVYYCAARARRYTDEYDYWGQGTQVTLSS	polyreactivity (PSR sort gate)	low polyreactivity

Sample QVKLVESGGGLVQAGGSLRLSFPASGRTFKYYAMGLYRQEPGKDRELVAAISWSGGSTYYADSVKGRFTISRDNEKNTVYLQMNSLKPEDTAVYYCAAVRHYHGTWYDYWGQGTQVTVSS — what was its polyreactivity (PSR sort gate)?
high polyreactivity
